Tested on: SR
test-details: NCI tumour cell line growth inhibition, 48 h
The source made the active and inactive calls. Rule as the data show it: active = GI50 up to about 1.1 µM and inactive = higher.
measured-metric: GI50

Problem: Quick check: GI50 of O=c1oc2cccnc2n1CCCCN1CCN(c2ccccc2)CC1 ?
Result: > 100 µM (inactive)

Problem: Quick check: GI50 of CCCCCCCC[N+](C)(C)Cc1ccc(C[N+](C)(C)CCCCCCCC)cc1 ?
Result: > 100 µM (inactive)

Problem: Quick check: GI50 of CCOC(=O)NC(Nc1ncn(C(NC(=O)OCC)(C(F)(F)F)C(F)(F)F)n1)(C(F)(F)F)C(F)(F)F ?
Result: > 100 µM (inactive)

Problem: Quick check: GI50 of COC(=O)c1cc(C#Cc2cc(OC)ccc2OC)ccc1OC ?
Result: 26.8 µM (inactive)

Problem: Quick check: GI50 of Nc1ncc(Cl)c(NCC2(CO)CC(CCc3ccccc3)C2)n1 (stereo unspecified) ?
Result: 2.38 µM (inactive)

Problem: Quick check: GI50 of NC(Cc1ccc(O)cn1)C(=O)O (stereo unspecified) ?
Result: > 100 µM (inactive)

* * *

Tested on: MCF7
test-details: NCI tumour cell line growth inhibition, 48 h
The source made the active and inactive calls. Rule as the data show it: active = GI50 up to about 1.1 µM and inactive = higher.
Outcomes you can answer with include only these: T for active, F for inactive

Problem: State the result this test recorded for O=C(O)CCSCc1ccc(I)cc1 .
Result: F

Problem: State the result this test recorded for CCCCCCCCCCCCC1NC(=N)NC2(CCCO2)C1C(=O)OC (configuration not stated) .
Result: F

Problem: State the result this test recorded for C[n+]1c(-c2ccc(/C=N/NC(=O)C(=O)N/N=C/c3ccc(-c4cn5ccccc5[n+]4C)cc3)cc2)cn2ccccc21 .
Result: F

Problem: State the result this test recorded for C=C1C(=O)O[C@H]2C/C(C)=C/CC/C(C)=C/CC[C@@](C)(O)[C@@H](I)C[C@@H]12 .
Result: F

Problem: State the result this test recorded for CC(C)(NO)/C(=N\O)c1ccco1 .
Result: F

Problem: State the result this test recorded for CC(=O)C(CN1CCOCC1)C(c1ccccc1)c1c(O)c2ccccc2oc1=O (configuration not stated) .
Result: F

Problem: State the result this test recorded for O=c1c2ccccc2n2c(-c3ccccc3O)nnc2n1-c1ccccc1 .
Result: F

Problem: State the result this test recorded for C/C(=N\NC(=S)Nc1ccc(Cl)cc1)c1nc2cccnc2[nH]1 .
Result: F

Problem: State the result this test recorded for O=C(O)c1cccc(S(=O)(=O)NCCO)c1 .
Result: F

Problem: State the result this test recorded for COc1ccc(-c2c(C#N)c(-c3ccc(C)cc3)n(NS(=O)(=O)c3ccccc3)c(=O)c2C#N)cc1 .
Result: F

Problem: State the result this test recorded for CSc1nc2c(ncn2C2OCC(O)C(O)C2O)c(=O)[nH]1 (configuration not stated) .
Result: F

Problem: State the result this test recorded for C/C=C1/C(=O)O[C@]23C=C[C@@H]4C(C(=O)OC)=CO[C@H](O[C@@H]12)[C@@H]43 .
Result: T

* * *

Tested on: SNB-19
test-details: NCI tumour cell line growth inhibition, 48 h
The source made the active and inactive calls. Rule as the data show it: active = GI50 up to about 1.1 µM and inactive = higher.
Outcomes you can answer with include only these: active, inactive

Problem: State the result this test recorded for CC(C)CC1NC(=O)CCC(NC(=O)C(Cc2ccc(O)cc2)NC(=O)OCc2ccccc2)C(=O)NC(Cc2ccccc2)C(=O)NC(Cc2ccccc2)NC1=O (centres undefined) .
Result: inactive

Problem: State the result this test recorded for CC(O)CC(=O)CO[C@H]1[C@H](O)[C@@H](O)[C@@H](O)[C@@H]2NC(=O)c3c(cc4c(c3O)OCO4)[C@H]21 (some centres undefined) .
Result: active

Problem: State the result this test recorded for CC12CC3OC(=O)C1COC14OC5(C2C1=O)C(O)(CCC1C4CC2OC24CC=CC(=O)C14C)C(=O)OC35C (centres undefined) .
Result: inactive

Problem: State the result this test recorded for CCOC(=O)N1[C@@H]2CCC[C@@H]2C(=O)[C@@H]2CCC[C@@H]21 .
Result: inactive

Problem: State the result this test recorded for COc1cc(C2C(Cl)C(=O)N2NC(=O)c2ccccc2O)ccc1O (centres undefined) .
Result: inactive

Problem: State the result this test recorded for COC(=O)[C@@H]1C=CCN1S(=O)(=O)c1ccc(C)cc1 .
Result: inactive

Problem: State the result this test recorded for CCCn1cnc2c(/N=N/O)ncnc21 .
Result: inactive

Problem: State the result this test recorded for CC(C)N1CCC2(CC1)NNc1ncccc1-n1cccc12 .
Result: inactive

Problem: State the result this test recorded for CCOC(=O)C1=C(OC(OCC)C(CC)[Se]c2ccccc2)CCCC1 (centres undefined) .
Result: inactive

Problem: State the result this test recorded for CC(=O)NC1=C(C)C(=O)c2c(nc3n2CCC3O)C1=N (centres undefined) .
Result: inactive

Problem: State the result this test recorded for CN(C)CCNC(=O)c1cccc2nc3ccc4cccnc4c3nc12 .
Result: active

Problem: State the result this test recorded for CCC(C)C1NC(=O)C(NC(=O)c2c3nc4c(C(=O)NC5C(=O)NC(C(C)CC)C(=O)N6CCCC6C(=O)N(C)CC(=O)N(C)C(C(C)C)C(=O)OC5C)ccc(C)c4oc-3c(C)c(=O)c2O)C(C)OC(=O)C(C(C)C)N(C)C(=O)CN(C)C(=O)C2CCCN2C1=O (centres undefined) .
Result: inactive

Problem: State the result this test recorded for c1ccc(C2=NOC3C4CCC(C4)C23)cc1 (centres undefined) .
Result: inactive

Problem: State the result this test recorded for O=C(CSCC(=O)N/N=C/c1cccc(O)c1)N/N=C/c1cccc(O)c1 .
Result: inactive

Problem: State the result this test recorded for CC(=O)CC(=O)/C=C/c1cccs1 .
Result: inactive

Problem: State the result this test recorded for C[C@H](NC1=CC(=O)C(N[C@@H](C)[C@H](O)c2ccccc2)=CC1=O)[C@H](O)c1ccccc1 .
Result: inactive

Problem: State the result this test recorded for CCNc1ccc2c(c1)C(=O)N(OS(C)(=O)=O)C2=O .
Result: inactive

Problem: State the result this test recorded for CN(C)CCNC(=O)c1cccc2nc3c4ccccc4c4ccccc4c3nc12 .
Result: inactive

Problem: State the result this test recorded for O=c1oc2cccnc2n1CCCCN1CCN(c2ccccc2)CC1 .
Result: inactive

Cited source: ChEMBL document CHEMBL1201862
